Target: Sentrin-specific protease 7 (Homo sapiens, UniProt Q9BQF6);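 further: Luminescence-based dose-response confirmation of ultra-high-throughput screening hits, measuring inhibition of SENP7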
Sequence (Q9BQF6 whole entry): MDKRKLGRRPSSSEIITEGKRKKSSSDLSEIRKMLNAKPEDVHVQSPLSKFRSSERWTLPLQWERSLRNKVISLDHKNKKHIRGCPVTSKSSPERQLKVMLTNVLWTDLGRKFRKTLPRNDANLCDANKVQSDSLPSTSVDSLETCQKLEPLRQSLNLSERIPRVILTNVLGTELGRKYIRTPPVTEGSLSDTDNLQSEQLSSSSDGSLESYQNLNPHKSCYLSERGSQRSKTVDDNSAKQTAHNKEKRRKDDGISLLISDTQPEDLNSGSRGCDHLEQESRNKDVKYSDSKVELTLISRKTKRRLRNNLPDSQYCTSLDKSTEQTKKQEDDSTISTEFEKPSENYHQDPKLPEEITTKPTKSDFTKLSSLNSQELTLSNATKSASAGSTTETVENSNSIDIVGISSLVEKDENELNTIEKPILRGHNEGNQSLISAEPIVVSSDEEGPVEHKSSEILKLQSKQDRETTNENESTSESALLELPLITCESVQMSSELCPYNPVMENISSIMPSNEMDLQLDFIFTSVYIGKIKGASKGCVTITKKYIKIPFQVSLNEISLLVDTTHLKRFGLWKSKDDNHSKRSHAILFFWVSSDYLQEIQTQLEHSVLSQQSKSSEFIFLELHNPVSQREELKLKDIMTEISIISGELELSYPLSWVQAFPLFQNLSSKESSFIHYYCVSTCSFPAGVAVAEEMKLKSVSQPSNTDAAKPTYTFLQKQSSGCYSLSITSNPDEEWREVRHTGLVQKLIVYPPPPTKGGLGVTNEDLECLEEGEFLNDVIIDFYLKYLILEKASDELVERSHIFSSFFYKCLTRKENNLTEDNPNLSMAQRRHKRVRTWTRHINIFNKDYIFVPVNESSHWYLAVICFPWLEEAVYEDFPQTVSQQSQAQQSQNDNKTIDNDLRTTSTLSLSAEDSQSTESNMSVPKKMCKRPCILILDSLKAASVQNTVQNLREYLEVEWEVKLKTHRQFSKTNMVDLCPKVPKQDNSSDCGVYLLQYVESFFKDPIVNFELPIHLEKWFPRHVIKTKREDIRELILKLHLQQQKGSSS
Type: functional
The source made the active and inactive calls.
Answer with one of the outcomes true (1) for active, false (0) for inactive

[
  {
    "compound": "COc1ccc2c(C#N)c3ccccn3c2c1",
    "category": "false (0)"
  },
  {
    "compound": "NC(=O)c1ccccc1OCC(=O)Nc1ccc(Cl)c(Cl)c1",
    "category": "true (1)"
  },
  {
    "compound": "O=C(O)c1cccc(NC(=O)c2cccc(S(=O)(=O)N3CCc4ccccc43)c2)c1",
    "category": "true (1)"
  },
  {
    "compound": "COc1ccc(C(=O)c2nccc3cc(OC)c(OC)cc23)cc1OC",
    "category": "true (1)"
  },
  {
    "compound": "CCOc1cccc(C(=O)Nc2ccc3ccccc3c2)c1",
    "category": "true (1)"
  }
]

### Prompt For this compound, state the assay outcome: CCOc1ccc(-n2nc3cc(C)c(N)cc3n2)cc1
### Response true (1)

### Prompt For this compound, state the assay outcome: O=C(CCCN1C(=O)S/C(=C/c2ccccc2)C1=S)Nc1ccc(C(=O)O)cc1
### Response true (1)

* * *

Target: Eukaryotic translation initiation factor 4H (Homo sapiens, UniProt Q15056)
Test: human eIF4H binding inhibitors, primary screen, translation initiation inhibitor project, biochemical, uHTS, fluorescence polarization (AID 2012)
Calls of active or inactive are those of the source.
Answer with one of the outcomes 1 = active, -1 = inactive

Study these solved cases before continuing.
[
  {
    "compound": "CCOc1ccccc1/N=C1/SCCCN1C",
    "testedTarget": "Eukaryotic translation initiation factor 4H (Homo sapiens, UniProt Q15056)",
    "category": -1
  },
  {
    "compound": "NC(=S)n1[nH]c(-c2ccc([N+](=O)[O-])cc2)c(/N=N/c2cccc([N+](=O)[O-])c2)c1=O",
    "testedTarget": "Eukaryotic translation initiation factor 4H (Homo sapiens, UniProt Q15056)",
    "category": 1
  },
  {
    "compound": "CCN1C(NCCOC)=N[C@@H](CCc2ccccc2)[C@H](C(=O)OC)[C@H]1C",
    "testedTarget": "Eukaryotic translation initiation factor 4H (Homo sapiens, UniProt Q15056)",
    "category": -1
  }
]

Now let's try a different one.
### Prompt For this compound, state the assay outcome: CCN1C(=NCC(C)C)N[C@@H](c2cccc(F)c2)C(C(=O)OC)=C1C
### Response -1

* * *

Assay: inhibitors of intracellular T. cruzi replication, confirmation, NIH3T3 host cells, beta-gal luminescence (AID 2044);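 further: intracellular parasites grown in NIH/3T3 mouse fibroblasts as host cells; luminescent beta-galactosidase reporter signal from transgenic T. cruzi replicating inside host cells; inhibitors lower the luminescence signal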
Format: functional, cell-based
The source made the active and inactive calls.
metricName: EC50

Solved cases below.
[
  {
    "compound": "Cc1cc(Cl)c(OCCOCCN2CCCC(C)C2)c(Br)c1 (configuration not stated)",
    "metricName": "EC50",
    "result": "0.393 µM (active)"
  },
  {
    "compound": "Cc1ccccc1N1CCN(Cc2c[nH]c3ccccc23)CC1",
    "metricName": "EC50",
    "result": "0.623 µM (active)"
  },
  {
    "compound": "CCC(=O)NC(c1ccc(Cl)cc1Cl)c1ccc2cccnc2c1O (configuration not stated)",
    "metricName": "EC50",
    "result": "0.296 µM (active)"
  },
  {
    "compound": "Cc1ccc(C(=O)N2N=C(c3ccc(Br)cc3)CC2c2ccccc2O)cc1 (configuration not stated)",
    "metricName": "EC50",
    "result": "2.15 µM (active)"
  },
  {
    "compound": "COc1ccc(-c2cc(C3CCN(c4ccc(C(C)=O)cc4[N+](=O)[O-])CC3)[nH]n2)cc1",
    "metricName": "EC50",
    "result": "1.87 µM (active)"
  }
]

# EC50 (compound: CCOc1ccc2oc(C(=O)NC3CCN(Cc4ccccc4)CC3)c(C)c2c1 ) is 2 µM (active)

# EC50 (compound: Cc1cccc(N2CCN(C(=O)CCCn3c(=S)[nH]c4cc5c(cc4c3=O)OCO5)CC2)c1C ) is 0.389 µM (active)

# EC50 (compound: CCOc1ccc(CCNC(=O)C(CC)n2nc(C)n3c(cc4sccc43)c2=O)cc1OCC (configuration not stated) ) is 1.31 µM (active)

# EC50 (compound: C=CCn1c(NC(=O)c2ccc(C)cc2)nc2ccccc21 ) is 2.11 µM (active)

# EC50 (compound: CC1=CC2/C=C(\C)CCC(O)C(O)/C=C/C(=O)C23C(=O)NC(CC(C)C)C3C1C (configuration not stated) ) is 4.09 µM (active)

# EC50 (compound: C=C1SC(Nc2c(C)cc(C)cc2C)=NC12CCCCC2 ) is 0.561 µM (active)

# EC50 (compound: Cc1ccc(C(=O)Nc2nc(-c3ccccc3)c(-c3ccccc3)o2)cc1 ) is 2.48 µM (active)

Data credit: ChEMBL document CHEMBL1201862
